Origin of measurements: paper PMC3712923

- Tgt: T1, wild-type streptavidin (UniProt P22629 25-183)
- T1 construct: wild-type streptavidin, commercial; also called wt SAV; wt streptavidin; source: bought: Sigma Canada
- Assay remarks: SPR; BIAcoreX; synthetic SBP peptide thiol-coupled by its N-terminal cysteine to a CM5 chip, streptavidin variant as analyte; blank flow cell as reference
- Study conditions: both partners purified
pKd: −log10 of the molar value.
Parameter: pKd

- synthetic 59-amino acid peptide with the full length SBP tag (N-terminal cysteine for thiol coupling to the CM5 chip, then the 20-amino-acid glycine-rich linker; the limits are worked out as 1 Cys + 20 linker + 38 SBP = 59; also called SBP tag (peptide); synthetic SBP tag; source: synthetic peptide (Peptide 2.0 Inc.)) peptide: CGGGGSTSGGSTSGGSTSGGGMDEKTTGWRGGHVVEGLAGELEQLRARLEHHPQGQREP: 8.78
